Reference source: ChEMBL document CHEMBL1138502

In this section, each of the molecules is paired with its reported log10 IC50.
- target: P2X purinoceptor 7 (Rattus norvegicus)
- Sequence (Q64663 whole entry): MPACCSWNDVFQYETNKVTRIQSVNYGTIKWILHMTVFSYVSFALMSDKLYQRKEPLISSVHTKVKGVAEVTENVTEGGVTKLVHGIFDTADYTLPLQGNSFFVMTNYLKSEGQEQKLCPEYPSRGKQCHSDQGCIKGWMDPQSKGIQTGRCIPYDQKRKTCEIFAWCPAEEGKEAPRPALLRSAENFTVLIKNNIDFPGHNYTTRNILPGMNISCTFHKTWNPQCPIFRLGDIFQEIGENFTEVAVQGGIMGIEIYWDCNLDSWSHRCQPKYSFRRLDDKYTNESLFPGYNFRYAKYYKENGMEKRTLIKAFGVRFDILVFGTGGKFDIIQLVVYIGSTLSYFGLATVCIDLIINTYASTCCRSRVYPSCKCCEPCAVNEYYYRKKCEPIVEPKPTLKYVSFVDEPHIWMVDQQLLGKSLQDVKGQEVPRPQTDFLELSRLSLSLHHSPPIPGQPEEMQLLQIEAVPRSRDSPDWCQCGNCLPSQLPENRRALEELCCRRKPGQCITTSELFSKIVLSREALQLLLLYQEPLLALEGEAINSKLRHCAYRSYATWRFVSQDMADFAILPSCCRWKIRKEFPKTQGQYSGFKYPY
- assay_details: Antagonist activity at rat cloned P2X7 receptor expressed in HEK293 cells assessed as inhibition of calcium flux by FLIPR assay
readout_label: log10 IC50 (log10 of the value in nM)

# molecule, observed_value
measured = [
    ("Cc1ccc(CC(=O)NC(NC(=NC#N)Nc2cccnc2C)C(C)(C)C)cc1F (stereo not drawn)", 2.30),
    ("Cc1ncccc1NC(=NC#N)NC(NC(=O)CCCCc1ccccc1)C(C)(C)C (stereo not drawn)", 1.70),
    ("COc1ccccc1NC(=NC(NC(=O)Cc1ccc(OC)c(OC)c1)C(C)(C)C)NC#N (stereo not drawn)", 1.40),
    ("COc1ccc(NC(=NC#N)NC(NC(=O)c2ccc(Cl)cc2)C(C)(Cl)Cl)c(OC)n1 (stereo not drawn)", 1.00),
    ("COc1ccc(CC(=O)NC(NC(=NC#N)Nc2ccccc2Cl)C(C)(C)C)cc1OC (stereo not drawn)", 0.90),
    ("COc1ccc(N/C(=N\\C#N)NC(NC(=O)Cc2ccc(OC)c(OC)c2)C(C)(C)C)c(OC)n1 (stereo not drawn)", 1.10),
    ("COc1cc(OC)cc(C(=O)NC(NC(=NC#N)Nc2cccnc2OC)C(C)(Cl)Cl)c1 (stereo not drawn)", 1.30),
    ("COc1ccc(CC(=O)NC(N/C(=N/C#N)Nc2ccc(F)cc2F)C(C)(C)C)cc1OC (stereo not drawn)", 1.00),
    ("COc1ccc(CC(=O)NC(N/C(=N/C#N)Nc2cccc3cnccc23)C(C)(C)C)cc1OC (stereo not drawn)", 1.50),
    ("COc1ccc(CC(=O)NC(NC(=NC#N)Nc2cccnc2OC)C(C)(Cl)Cl)cc1OC (stereo not drawn)", 0.90),
    ("COc1ccc(CCC(=O)NC(N=C(NC#N)Nc2ccccc2C)C(C)(C)C)cc1OC (stereo not drawn)", 2.50),
    ("Cc1ccccc1N/C(=N\\C#N)NC(NC(=O)Cc1ccc2c(c1)OCO2)C(C)(C)C (stereo not drawn)", 1.60),
    ("CC(C)(C)C(N=C(NC#N)Nc1cccc2ncccc12)NC(=O)Cc1ccc2c(c1)OCCO2 (stereo not drawn)", 1.00),
    ("CC(C)(C)C(NC(=O)Cc1cccc2ccccc12)NC(=NC#N)Nc1cccc2ncccc12 (stereo not drawn)", 1.50),
    ("COc1ccc(CC(=O)NC(N=C(NC#N)Nc2cc(C)ccc2C)C(C)(C)C)cc1OC (stereo not drawn)", 0.50),
    ("COc1ccc(CC(=O)NC(N=C(NC#N)Nc2ccc(C)cc2)C(C)(C)C)cc1OC (stereo not drawn)", 1.30),
    ("Cc1ccccc1N/C(=N\\C#N)NC(NC(=O)Cc1ccccc1)C(C)(C)C (stereo not drawn)", 2.50),
    ("CCCCCC(=O)NC(N=C(NC#N)Nc1ccccc1C)C(C)(C)C (stereo not drawn)", 1.50),
    ("COc1ccc(CC(=O)NC(N/C(=N/C#N)Nc2c(F)cccc2F)C(C)(C)C)cc1OC (stereo not drawn)", 1.50),
    ("COc1ccc(CC(=O)NC(N=C(NC#N)Nc2cc(Cl)ccc2F)C(C)(C)C)cc1OC (stereo not drawn)", 1.30),
    ("CSc1ccc(CC(=O)NC(N=C(NC#N)Nc2ccccc2C)C(C)(C)C)cc1 (stereo not drawn)", 0.90),
    ("COc1ccc(CCCC(=O)NC(N/C(=N/C#N)Nc2cccnc2C)C(C)(C)C)cc1 (stereo not drawn)", 2.00),
    ("COc1ccc(CC(=O)NC(N=C(NC#N)Nc2cccc(C)c2)C(C)(C)C)cc1OC (stereo not drawn)", 1.60),
    ("COc1cc(OC)cc(C(=O)NC(N=C(NC#N)Nc2ccccc2C)C(C)(C)C)c1 (stereo not drawn)", 2.90),
    ("COc1ccc(CC(=O)NC(N=C(NC#N)Nc2cc(F)cc(F)c2)C(C)(C)C)cc1OC (stereo not drawn)", 2.50),
    ("CC(C)(C)C(NC(=O)Cc1ccc(C#N)cc1)N/C(=N/C#N)Nc1cccc2ncccc12 (stereo not drawn)", 0.80),
    ("COc1ccc(CC(=O)NC(N=C(NC#N)Nc2ccc(F)c(F)c2)C(C)(C)C)cc1OC (stereo not drawn)", 1.70),
    ("COc1ccc(CC(=O)NC(NC(=NC#N)Nc2c(F)cc(F)cc2F)C(C)(C)C)cc1OC (stereo not drawn)", 1.50),
    ("CSc1ccc(CC(=O)NC(N=C(NC#N)Nc2cccc3ncccc23)C(C)(C)C)cc1 (stereo not drawn)", 0.90),
    ("COc1ccc(CC(=O)NC(NC(=NC#N)Nc2ccccc2C)C(C)(C)C)cc1OC (single isomer, unassigned; (+))", 1.10),
    ("COc1ccc(CC(=O)NC(N=C(NC#N)Nc2ccccc2F)C(C)(C)C)cc1OC (stereo not drawn)", 1.10),
    ("CC(C)(C)C(NC(=O)Cc1ccc(Cl)cc1)N/C(=N/C#N)Nc1cccc2ncccc12 (stereo not drawn)", 0.80),
    ("COc1ccc(CC(=O)NC(NC(=S)Nc2ccccc2C)C(Cl)(Cl)Cl)cc1OC (stereo not drawn)", 1.70),
    ("Cc1ncccc1N/C(=N\\C#N)NC(NC(=O)Cc1ccc(F)cc1)C(C)(C)C (stereo not drawn)", 2.60),
    ("COc1ccc(CC(=O)NC(N/C(=N/C#N)Nc2cc(F)ccc2F)C(C)(C)C)cc1OC (stereo not drawn)", 1.30),
    ("COc1ccc(CCCC(=O)NC(NC(=NC#N)Nc2ccccc2C)C(C)(C)C)cc1 (stereo not drawn)", 1.50),
    ("COc1ccc(CC(=O)NC(N/C(=N/C#N)Nc2cccnc2Cl)C(C)(C)C)cc1OC (stereo not drawn)", 1.60),
    ("Cc1ccccc1N/C(=N\\C#N)NC(NC(=O)Cc1ccc(Cl)cc1)C(C)(C)C (stereo not drawn)", 1.30),
]
